# TARGET_OR_TEST_SYSTEM: protein farnesyltransferase (Rattus norvegicus, UniProt Q02293+Q04631)
# Construct: The enzyme is purified according to Reiss, Y., et al., Cell, 62: 81-88 (1990), utilizing steps one through three; from tissue; host or cells: rat brain
# Sequence (Q02293 whole entry, one chain of several): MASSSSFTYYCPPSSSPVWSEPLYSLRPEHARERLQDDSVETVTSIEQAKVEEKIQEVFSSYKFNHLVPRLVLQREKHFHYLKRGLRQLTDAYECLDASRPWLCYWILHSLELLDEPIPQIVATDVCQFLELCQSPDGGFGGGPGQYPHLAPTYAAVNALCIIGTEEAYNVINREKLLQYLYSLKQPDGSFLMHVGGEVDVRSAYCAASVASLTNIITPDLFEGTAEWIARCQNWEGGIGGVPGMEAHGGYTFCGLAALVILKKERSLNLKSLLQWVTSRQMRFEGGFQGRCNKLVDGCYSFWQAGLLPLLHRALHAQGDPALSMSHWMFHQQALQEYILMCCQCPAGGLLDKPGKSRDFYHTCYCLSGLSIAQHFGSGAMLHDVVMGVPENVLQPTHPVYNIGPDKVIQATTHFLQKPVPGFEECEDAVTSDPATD
# MEASUREMENT_NOTES: Inhibition of farnesyltransferase (scintillation proximity assay, rat brain enzyme, biotin-K Ras B fragment substrate)
# Type: biochemical
# APPLIED_CONDITIONS: read-out: % inhibition of farnesyltransferase at 1 × 10^-6 M; 1 × 10^-6 M (Table 2)
# Method: The ability of the compounds of the invention to inhibit protein farnesyltransferase or protein geranylgeranyltransferase can be measured according to the method of Moores, et al., J. Biol. Chem. 266: 14603 (1991) or the method of Vogt, et al., J. Biol. Chem. 270:660-664 (1995). […] In addition, in vitro inhibition of protein farnesyltransferase may be measured by the following procedure. […] The % inhibition of protein farnesyltransferase was determined for representative compounds of the invention.
Counter-ions that a name gives are not always drawn.
RESULT_TYPE: inhibition at 1 µM (%)

Query string: Given CSCC[C@H](NC(=O)c1ccc(/C=C/c2cncnc2)cc1-c1ccccc1C)C(=O)O [Example 494, lithium salt] , state its recorded inhibition at 1 µM.
Result string: 96

Query string: Given the entry `CCCCN(C)N(CCC1CCCCC1)Cc1ccc(C(=O)N[C@@H](CCSC)C(=O)O)c(-c2ccccc2C)c1` , report its measured inhibition at 1 µM.
Result string: 94

Query string: Bench note: what inhibition at 1 µM did `CSCC[C@H](NC(=O)c1ccc(/C=C/c2ccc3ccccc3c2)cc1-c1ccccc1C)C(=O)O` show?
Result string: 92

====

# TARGET_OR_TEST_SYSTEM: protein farnesyltransferase (Rattus norvegicus, UniProt Q02293+Q04631)
# Construct: The enzyme is purified according to Reiss, Y., et al., Cell, 62: 81-88 (1990), utilizing steps one through three; from tissue; host or cells: rat brain
# MEASUREMENT_NOTES: Inhibition of farnesyltransferase (scintillation proximity assay, rat brain enzyme, biotin-K Ras B fragment substrate)
# Assay type: biochemical
# APPLIED_CONDITIONS: 1 × 10^-7 M (Table 3)
RESULT_TYPE: % inhibition of farnesyltransferase at 1 × 10^-7 M (%)

Query string: Return reported % inhibition of farnesyltransferase at 1 × 10^-7 M; argument: CSCC[C@H](NC(=O)c1ccc(COCc2ccc(Cl)cc2)cc1-c1ccccc1C)C(=O)[O-].[Li+] [Example 933]
Result string: 91

Query string: Requested field: % inhibition of farnesyltransferase at 1 × 10^-7 M. Item: COc1ccccc1CCOCc1ccc(C(=O)N[C@@H](CCSC)C(=O)O)c(-c2ccccc2C)c1 [Example 589]
Result string: 91

Query string: Which % inhibition of farnesyltransferase at 1 × 10^-7 M value belongs to CSCC[C@H](NC(=O)c1ccc(CN(Cc2ccc(Cl)cc2)c2ccccc2)cc1-c1ccccc1C)C(=O)O [Example 781] ?
Result string: 91

====

# TARGET_OR_TEST_SYSTEM: protein farnesyltransferase (Rattus norvegicus, UniProt Q02293+Q04631)
# Construct: The enzyme is purified according to Reiss, Y., et al., Cell, 62: 81-88 (1990), utilizing steps one through three; from tissue; host or cells: rat brain
# MEASUREMENT_NOTES: Inhibition of farnesyltransferase (scintillation proximity assay, rat brain enzyme, biotin-K Ras B fragment substrate)
# Type: biochemical
# APPLIED_CONDITIONS: read-out: % inhibition of farnesyltransferase at 1 × 10^-8 M; 1 × 10^-8 M (Table 4)
RESULT_TYPE: inhibition at 0.01 µM (%)

Example cases with answers are listed next.
Query string: Endpoint output: inhibition at 0.01 µM of `CSCC[C@H](NC(=O)c1ccc(CCc2ccc(Oc3ccc(Cl)cc3)cc2)cc1-c1ccccc1C)C(=O)O` . Value?
Result string: 85

Query string: Name the recorded inhibition at 0.01 µM for `CSCC[C@H](NC(=O)c1ccc(CN2CCC[C@H]2COc2ccccc2)cc1-c1ccccc1C)C(=O)O` .
Result string: 69

A. CSCC[C@H](NC(=O)c1ccc(CN2CCC[C@H]2COCC2CCCCC2)cc1-c1ccccc1C)C(=O)O
B. CSCC[C@H](NC(=O)c1ccc(/C=C/c2ccc(Oc3cccc(Cl)c3)cc2)cc1-c1ccccc1C)C(=O)O
Query string: Name the one with the greater inhibition at 0.01 µM value, either A or B as given. Please respond with the label that marks your chosen entry.
Result string: A
(A: 93%, B: 60%)

====

# TARGET_OR_TEST_SYSTEM: protein farnesyltransferase (Rattus norvegicus, UniProt Q02293+Q04631)
# Construct: The enzyme is purified according to Reiss, Y., et al., Cell, 62: 81-88 (1990), utilizing steps one through three; from tissue; host or cells: rat brain
# MEASUREMENT_NOTES: Inhibition of farnesyltransferase (scintillation proximity assay, rat brain enzyme, biotin-K Ras B fragment substrate)
# Assay type: biochemical
# APPLIED_CONDITIONS: 1 × 10^-8 M (Table 4)
RESULT_TYPE: % inhibition of farnesyltransferase at 1 × 10^-8 M (%)

Query string: May I ask what % inhibition of farnesyltransferase at 1 × 10^-8 M has been recorded for CCSC[C@H](CC1CCCCC1)N(C)Cc1ccc(C(=O)N[C@@H](CCSC)C(=O)O)c(-c2ccccc2C)c1 [Example 944] ?
Result string: 88

Query string: # lookup: % inhibition of farnesyltransferase at 1 × 10^-8 M of CSCC[C@H](NC(=O)c1ccc(COCCc2ccc(Cl)cc2Cl)cc1-c1ccccc1C)C(=O)[O-].[Li+] [Example 591]
Result string: 82

Query string: Item CSCC[C@H](NC(=O)c1ccc(CO[C@H](CSC)CC2CCCCC2)cc1-c1ccccc1C)C(=O)O [Example 882] has what recorded % inhibition of farnesyltransferase at 1 × 10^-8 M?
Result string: 79

Query string: Given the entry CSCC[C@H](NC(=O)c1ccc(CN(Cc2ccccc2)c2cccc([N+](=O)[O-])c2)cc1-c1ccccc1C)C(=O)[O-].[Li+] [Example 842] , report its measured % inhibition of farnesyltransferase at 1 × 10^-8 M.
Result string: 88

Query string: Field request: % inhibition of farnesyltransferase at 1 × 10^-8 M | item: CSCC[C@H](NC(=O)c1ccc(CN(Cc2ccccc2)c2ccc(SC)cc2)cc1-c1ccccc1C)C(=O)[O-].[Li+] [Example 852]
Result string: 79

Query string: # query: % inhibition of farnesyltransferase at 1 × 10^-8 M of entry CSCC[C@H](NC(=O)c1ccc(CN(Cc2ccccc2)c2cccc(SC)c2)cc1-c1ccccc1C)C(=O)[O-].[Li+] [Example 851]
Result string: 82

====

# TARGET_OR_TEST_SYSTEM: protein farnesyltransferase (Rattus norvegicus, UniProt Q02293+Q04631)
# Construct: The enzyme is purified according to Reiss, Y., et al., Cell, 62: 81-88 (1990), utilizing steps one through three; from tissue; host or cells: rat brain
# MEASUREMENT_NOTES: Inhibition of farnesyltransferase (scintillation proximity assay, rat brain enzyme, biotin-K Ras B fragment substrate)
# Type: biochemical
# APPLIED_CONDITIONS: read-out: % inhibition at 0.1 μM (*); Table 6, * = 0.1 μM (footnote); title prints 0.1 mM
# Description: The ability of the compounds of the invention to inhibit protein farnesyltransferase or protein geranylgeranyltransferase can be measured according to the method of Moores, et al., J. Biol. Chem. 266: 14603 (1991) or the method of Vogt, et al., J. Biol. Chem. 270:660-664 (1995). […] In addition, in vitro inhibition of protein farnesyltransferase may be measured by the following procedure. […] The % inhibition of protein farnesyltransferase was determined for representative compounds of the invention.
Where a name gives a salt, the structure may show the parent alone.
RESULT_TYPE: inhibition at 0.1 µM (%)

Query string: Entry `CSCC[C@H](NC(=O)c1ccc(CN2CC(F)(F)C[C@H]2COCC2CCCCC2)cc1-c1ccccc1C)C(=O)O` has what inhibition at 0.1 µM?
Result string: 92

Query string: Data request, read-out inhibition at 0.1 µM, for `CSCC[C@H](NC(=O)c1ccc(CN2CCC[C@H]2CN2CCCCC2)cc1-c1ccccc1C)C(=O)O`
Result string: 92

Query string: Quick one: inhibition at 0.1 µM of CSCC[C@H](NC(=O)c1ccc(CC(CCC2CCCCC2)C(=O)OC(C)(C)C)cc1-c1ccccc1C)C(=O)O (stereo partly shown) [Example 1301, Lithium Salt] ?
Result string: 97

Query string: Sample CSCC[C@H](NC(=O)c1ccc(CP(C)(=O)CC2CCCCC2)cc1-c1ccccc1C)C(=O)O (stereo partly shown) — what was its inhibition at 0.1 µM?
Result string: 86
